target: MDM2 (Homo sapiens, UniProt Q00987); test: Competitive fluorescence polarization assay for MDM2; assay type: binding; conditions: competitive FP assay, MDM2; read-out: Ki (MDM2)
Sequence (Q00987 1-125): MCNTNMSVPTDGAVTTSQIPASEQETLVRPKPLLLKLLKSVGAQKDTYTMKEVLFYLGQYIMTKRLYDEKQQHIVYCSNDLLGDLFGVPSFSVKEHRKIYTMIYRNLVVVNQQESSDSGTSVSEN
Where a SMILES comes first, the peptide text is derived from it. Bridges are numbered along the chain shown (N, C = ends). [ ]: non-standard residue; d: D form. R8 = C=CCCCCCC[C@@](C)(N)C(=O)O; Cba = N[C@@H](CC1CCC1)C(=O)O; S5 = C=CCCC[C@](C)(N)C(=O)O; Nle = CCCC[C@H](N)C(=O)O
Task for the reader: assign each of the following molecules its reported Ki.

Example cases with answers are listed next.
| molecule | Ki |
| --- | --- |
| CC(=O)N[C@@H](CC(C)C)C(=O)N[C@H](C(=O)N[C@@H](Cc1ccc(F)c(F)c1)C(=O)N[C@]1(C)CCCCCCC=CCCC[C@@](C)(C(=O)N[C@@H](CO)C(=O)N[C@@H](C)C(=O)N[C@@H](C)C(N)=O)NC(=O)[C@H](CC(C)C)NC(=O)[C@H](CCC(N)=O)NC(=O)[C@H](C)NC(=O)[C@H](Cc2c[nH]c3ccccc23)NC(=O)[C@H](Cc2ccc(O)cc2)NC(=O)[C@H](CCC(=O)O)NC1=O)[C@@H](C)O (single isomer, unassigned) | < 10 nM |
| CC[C@H](C)[C@H](NC(=O)[C@H](C)NC(=O)[C@H](C)NC(=O)[C@]1(C)CCCC=CCCCCCC[C@@](C)(NC(=O)[C@H](Cc2ccccc2)NC(=O)[C@@H](NC(=O)[C@H](CC(C)C)NC(C)=O)[C@@H](C)O)C(=O)N[C@@H](C)C(=O)N[C@@H](Cc2c[nH]cn2)C(=O)N[C@@H](Cc2c[nH]c3ccccc23)C(=O)N[C@@H](C)C(=O)N[C@@H](CCC(N)=O)C(=O)N[C@@H](CC(C)C)C(=O)N1)C(=O)N[C@H](C)C(N)=O [compound 170] (Ac-LTF[R8]AHWAQL[S5]AAI[dA]-NH2; staple 4-11) | < 10 nM |
| CC(=O)N[C@@H](CC(C)C)C(=O)N[C@H](C(=O)N[C@@H](Cc1ccccc1)C(=O)N[C@]1(C)CCCCCCC=CCCC[C@@](C)(C(=O)N[C@@H](C)C(=O)N[C@@H](C)C(=O)N[C@@H](C)C(=O)N[C@@H](C)C(=O)N[C@@H](C)C(=O)N[C@H](C)C(N)=O)NC(=O)[C@H](CC(C)C)NC(=O)[C@H](CO)NC(=O)[C@H](C)NC(=O)[C@H](Cc2c[nH]c3ccccc23)NC(=O)[C@H](Cc2ccc(O)cc2)NC(=O)[C@H](CCC(=O)O)NC1=O)[C@@H](C)O [compound 610] (Ac-LTF[R8]EYWASL[S5]AAAAA[dA]-NH2; staple 4-11) | < 10 nM |
| CC[C@H](C)[C@H](NC(=O)[C@H](C)NC(=O)[C@H](C)NC(=O)[C@]1(C)CCCC=CCCCCCC[C@@](C)(NC(=O)[C@H](Cc2ccccc2)NC(=O)[C@@H](NC(=O)[C@H](CC(C)C)NC(C)=O)[C@@H](C)O)C(=O)N[C@@H](C)C(=O)N[C@@H](Cc2ccc(C(=O)O)cc2)C(=O)N[C@@H](Cc2c[nH]c3ccccc23)C(=O)N[C@@H](C)C(=O)N[C@@H](CCC(N)=O)C(=O)N[C@@H](CC(C)C)C(=O)N1)C(=O)N[C@H](C)C(N)=O (single isomer, unassigned) | < 10 nM |
| CCCC[C@H](NC(=O)[C@H](C)NC(=O)[C@H](C)NC(=O)[C@]1(C)CCCC=CCCCCCC[C@@](C)(NC(=O)[C@H](Cc2ccccc2)NC(=O)[C@@H](NC(=O)[C@H](CC(C)C)NC(C)=O)[C@@H](C)O)C(=O)N[C@@H](C)C(=O)N[C@@H](Cc2ccc(O)cc2)C(=O)N[C@@H](Cc2c[nH]c3ccccc23)C(=O)N[C@@H](C)C(=O)N[C@@H](CCC(N)=O)C(=O)N[C@@H](CC(C)C)C(=O)N1)C(=O)N[C@@H](C)C(=O)N[C@@H](C)C(N)=O | 10 to 100 nM |

Look up Ki for the entries below, preserving their order.
1. CCCC[C@H](NC(=O)[C@H](C)NC(=O)[C@H](CO)NC(=O)[C@]1(C)CCCC=CCCCCCC[C@@](C)(NC(=O)[C@H](Cc2ccccc2)NC(=O)[C@@H](NC(=O)[C@H](CC(C)C)NC(C)=O)[C@@H](C)O)C(=O)N[C@@H](CCC(=O)O)C(=O)N[C@@H](Cc2ccc(O)cc2)C(=O)N[C@@H](Cc2c[nH]c3ccccc23)C(=O)N[C@@H](Cc2c[nH]c3ccccc23)C(=O)N[C@@H](CCC(N)=O)C(=O)N[C@@H](CC2CCC2)C(=O)N1)C(=O)N[C@@H](C)C(N)=O [compound 246] (Ac-LTF[R8]EYWWQ[Cba][S5]SA[Nle]A-NH2; staple 4-11)
2. CCCC[C@H](NC(=O)[C@H](Cc1c[nH]c2ccccc12)NC(=O)[C@H](C)NC(=O)[C@]1(C)CCCC=CCCCCCC[C@@](C)(NC(=O)[C@H](Cc2ccccc2)NC(=O)[C@@H](NC(=O)[C@H](CC(C)C)NC(C)=O)[C@@H](C)O)C(=O)N[C@@H](C)C(=O)N[C@@H](Cc2ccc(O)cc2)C(=O)N[C@@H](Cc2c[nH]c3ccccc23)C(=O)N[C@@H](C)C(=O)N[C@@H](CCC(N)=O)C(=O)N[C@@H](CC2CCC2)C(=O)N1)C(=O)N[C@@H](C)C(N)=O [compound 239] (Ac-LTF[R8]AYWAQ[Cba][S5]AW[Nle]A-NH2; staple 4-11)
3. CC(=O)N[C@@H](CC(C)C)C(=O)N[C@H](C(=O)N[C@@H](Cc1ccccc1)C(=O)N[C@]1(C)CCCCCCC=CCCC[C@@](C)(C(=O)N[C@@H](C)C(=O)N[C@@H](C)C(=O)NC(C)(C)C(=O)N[C@@H](C)C(N)=O)NC(=O)[C@H](CC(C)C)NC(=O)[C@H](CCC(N)=O)NC(=O)[C@H](C)NC(=O)[C@H](Cc2c[nH]c3ccccc23)NC(=O)[C@H](Cc2ccc(O)cc2)NC(=O)[C@H](C)NC1=O)[C@@H](C)O (single isomer, unassigned)

< 10 nM
10 to 100 nM
< 10 nM
